Reference source: patent US20140275060A1

Give measured nH (slope factor of the inhibition curve) for each item. Keep answers brief.
target: GluN1/GluN2B Receptors (Rattus norvegicus, UniProt P35439+Q00960); test: Two-electrode voltage-clamp IC50 determination at GluN1/GluN2B receptors expressed in Xenopus oocytes; format: cell-based, Human or Rat; settings: pH 7.6
Sequence (Q00960 27-1482, other chains not shown): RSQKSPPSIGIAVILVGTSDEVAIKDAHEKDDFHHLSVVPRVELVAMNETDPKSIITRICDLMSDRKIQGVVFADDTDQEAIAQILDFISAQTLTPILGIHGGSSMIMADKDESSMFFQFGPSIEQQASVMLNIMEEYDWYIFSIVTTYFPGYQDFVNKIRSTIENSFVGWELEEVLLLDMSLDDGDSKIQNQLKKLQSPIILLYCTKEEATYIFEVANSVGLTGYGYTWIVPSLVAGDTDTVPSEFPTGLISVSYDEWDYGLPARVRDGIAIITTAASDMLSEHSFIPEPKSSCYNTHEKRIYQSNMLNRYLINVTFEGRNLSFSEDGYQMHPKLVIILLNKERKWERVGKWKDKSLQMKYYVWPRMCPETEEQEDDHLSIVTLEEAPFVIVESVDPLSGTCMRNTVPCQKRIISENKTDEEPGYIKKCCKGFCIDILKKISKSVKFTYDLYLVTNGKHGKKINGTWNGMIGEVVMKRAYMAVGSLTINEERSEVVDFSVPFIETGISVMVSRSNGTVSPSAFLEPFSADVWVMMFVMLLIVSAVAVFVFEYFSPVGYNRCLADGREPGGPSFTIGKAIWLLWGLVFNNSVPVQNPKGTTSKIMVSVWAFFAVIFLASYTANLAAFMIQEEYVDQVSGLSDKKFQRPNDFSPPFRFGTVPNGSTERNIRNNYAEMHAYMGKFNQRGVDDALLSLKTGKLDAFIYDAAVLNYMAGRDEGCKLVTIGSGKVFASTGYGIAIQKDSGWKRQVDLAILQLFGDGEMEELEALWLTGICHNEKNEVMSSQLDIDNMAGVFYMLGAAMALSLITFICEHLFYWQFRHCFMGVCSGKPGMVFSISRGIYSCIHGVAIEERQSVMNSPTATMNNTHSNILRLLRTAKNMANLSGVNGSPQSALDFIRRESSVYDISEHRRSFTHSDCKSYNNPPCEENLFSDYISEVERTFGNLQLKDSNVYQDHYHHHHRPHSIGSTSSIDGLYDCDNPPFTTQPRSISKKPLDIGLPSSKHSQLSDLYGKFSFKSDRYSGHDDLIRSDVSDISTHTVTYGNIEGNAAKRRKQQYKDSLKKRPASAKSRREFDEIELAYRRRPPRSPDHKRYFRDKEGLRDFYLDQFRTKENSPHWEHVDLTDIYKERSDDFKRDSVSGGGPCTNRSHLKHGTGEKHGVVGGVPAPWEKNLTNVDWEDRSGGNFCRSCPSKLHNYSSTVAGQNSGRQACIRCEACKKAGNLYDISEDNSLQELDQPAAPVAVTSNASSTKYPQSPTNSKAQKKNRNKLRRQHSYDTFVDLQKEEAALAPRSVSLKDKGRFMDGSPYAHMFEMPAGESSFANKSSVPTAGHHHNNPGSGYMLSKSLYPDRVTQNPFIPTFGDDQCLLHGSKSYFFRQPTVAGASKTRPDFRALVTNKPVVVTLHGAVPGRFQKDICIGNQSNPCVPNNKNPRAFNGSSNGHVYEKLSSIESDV
# answer = number (no unit)

Q: So what nH (slope factor of the inhibition curve) did O=C1CCc2cc(/C=C/C(O)CN3CCN(c4ccc(Cl)cc4)CC3)ccc2N1 (racemic) [Compound 21] get with GluN1/GluN2B Receptors (Rattus norvegicus, UniProt P35439+Q00960)?
A: −1.28

Q: So what nH (slope factor of the inhibition curve) did O=C1CCc2cc(/C=C/[C@@H](O)CN3CCN(c4ccc(C(F)(F)F)cc4)CC3)ccc2N1 [Compound 35] get with GluN1/GluN2B Receptors (Rattus norvegicus, UniProt P35439+Q00960)?
A: −0.75

Q: So what nH (slope factor of the inhibition curve) did CC(C)c1ccc(N2CCN(C[C@H](O)/C=C/c3ccc4c(c3)CCC(=O)N4)CC2)cc1 [Compound 29] get with GluN1/GluN2B Receptors (Rattus norvegicus, UniProt P35439+Q00960)?
A: −1.31

Q: So what nH (slope factor of the inhibition curve) did O=C1CCc2cc(/C=C/[C@@H](O)CN3CCN(c4ccc(C(F)(F)F)cn4)CC3)ccc2N1 [Compound 45] get with GluN1/GluN2B Receptors (Rattus norvegicus, UniProt P35439+Q00960)?
A: −0.80

Q: So what nH (slope factor of the inhibition curve) did O=C1CCc2cc(/C=C/[C@H](O)CN3CCN(c4ccc(C(F)(F)F)cc4)CC3)ccc2N1 [Compound 33] get with GluN1/GluN2B Receptors (Rattus norvegicus, UniProt P35439+Q00960)?
A: −0.65

Q: So what nH (slope factor of the inhibition curve) did NC(=O)Nc1ccc(/C=C/[C@@H](O)CN2CCN(c3ccc(C(F)(F)F)cc3)CC2)cc1 [Compound 38] get with GluN1/GluN2B Receptors (Rattus norvegicus, UniProt P35439+Q00960)?
A: −0.69

Q: So what nH (slope factor of the inhibition curve) did O=C1COc2cc(/C=C/[C@@H](O)CN3CCN(c4ccc(C(F)(F)F)cc4)CC3)ccc2N1 [Compound 15] get with GluN1/GluN2B Receptors (Rattus norvegicus, UniProt P35439+Q00960)?
A: −1.04

Q: So what nH (slope factor of the inhibition curve) did O=C1CCc2cc(/C=C/[C@@H](CO)N3CCN(c4ccc(C(F)(F)F)cc4)CC3)ccc2N1 [Compound 43] get with GluN1/GluN2B Receptors (Rattus norvegicus, UniProt P35439+Q00960)?
A: −1.09

---

Give measured nH (slope factor of the inhibition curve) for each item. Keep answers brief.
target: GluN1/GluN2B Receptors (Rattus norvegicus, UniProt P35439+Q00960); test: Two-electrode voltage-clamp IC50 determination at GluN1/GluN2B receptors expressed in Xenopus oocytes; type: cell-based, Human or Rat; conditions: pH 7.6

Q: Recorded nH (slope factor of the inhibition curve) for `NC(=O)Nc1ccc(/C=C/[C@H](O)CN2CCN(c3ccc(C(F)(F)F)cc3)CC2)cc1` , please?
A: −0.69

Q: Recorded nH (slope factor of the inhibition curve) for O=C1CCc2cc(/C=C/C(CO)N3CCN(c4ccc(Cl)cc4)CC3)ccc2N1 (racemic) , please?
A: −0.60

Q: Recorded nH (slope factor of the inhibition curve) for `CC(C)c1ccc(N2CCN(C[C@@H](O)/C=C/c3ccc4c(c3)CCC(=O)N4)CC2)cc1` , please?
A: −1.22

Q: Recorded nH (slope factor of the inhibition curve) for CCCc1ccc(N2CCN(CC(O)C=Cc3ccc4[nH]c(=O)ccc4c3)CC2)cc1 (racemic) , please?
A: −1.24

---

Give measured nH (slope factor of the inhibition curve) for each item. Keep answers brief.
target: GluN1/GluN2B Receptors (Rattus norvegicus, UniProt P35439+Q00960); assay: Two-electrode voltage-clamp IC50 determination at GluN1/GluN2B receptors expressed in Xenopus oocytes; assay type: cell-based, Human or Rat; conditions: pH 6.9

Q: So what nH (slope factor of the inhibition curve) did `O=c1ccc2cc(/C=C/[C@H](O)CN3CCN(c4ccc(C5CC5)cc4)CC3)ccc2[nH]1` get with GluN1/GluN2B Receptors (Rattus norvegicus, UniProt P35439+Q00960)?
A: −0.81

Q: So what nH (slope factor of the inhibition curve) did `CC(C)c1ccc(N2CCN(C[C@H](O)/C=C/c3ccc4c(c3)CCC(=O)N4)CC2)cc1` get with GluN1/GluN2B Receptors (Rattus norvegicus, UniProt P35439+Q00960)?
A: −0.54

Q: So what nH (slope factor of the inhibition curve) did `CCCc1ccc(N2CCN(C[C@@H](O)/C=C/c3ccc4[nH]c(=O)ccc4c3)CC2)cc1` get with GluN1/GluN2B Receptors (Rattus norvegicus, UniProt P35439+Q00960)?
A: −0.87

Q: So what nH (slope factor of the inhibition curve) did `O=C1NCc2cc(/C=C/[C@@H](O)CN3CCN(c4ccc(C5CC5)cc4)CC3)ccc2N1` get with GluN1/GluN2B Receptors (Rattus norvegicus, UniProt P35439+Q00960)?
A: −0.78

---

target: GluN1/GluN2B Receptors (Rattus norvegicus, UniProt P35439+Q00960); experiment: Two-electrode voltage-clamp IC50 determination at GluN1/GluN2B receptors expressed in Xenopus oocytes; format: cell-based, Human or Rat; conditions: pH 6.9
Give measured nH (slope factor of the inhibition curve) for each item. Keep answers brief.
# answer = number (no unit)

Q: Recorded nH (slope factor of the inhibition curve) for O=C1CCc2cc(/C=C/[C@@H](O)CN3CCN(c4ccc(C(F)(F)F)cn4)CC3)ccc2N1 [Compound 45] , please?
A: −0.80

Q: Recorded nH (slope factor of the inhibition curve) for CC(C)c1ccc(N2CCN(C[C@@H](O)/C=C/c3ccc(NC(N)=O)cc3)CC2)cc1 [Compound 36] , please?
A: −0.82

Q: Recorded nH (slope factor of the inhibition curve) for O=C1CCc2cc(/C=C/C(O)CN3CCN(c4ccc(Cl)cc4)CC3)ccc2N1 (racemic) [Compound 21] , please?
A: −0.81

Q: Recorded nH (slope factor of the inhibition curve) for CC(C)c1ccc(N2CCN(C[C@@H](O)/C=C/c3ccc4c(c3)CCC(=O)N4)CC2)cc1 [Compound 25] , please?
A: −0.61

Q: Recorded nH (slope factor of the inhibition curve) for NC(=O)Nc1ccc(/C=C/[C@H](O)CN2CCN(c3ccc(C(F)(F)F)cc3)CC2)cc1 [Compound 39] , please?
A: −0.43

Q: Recorded nH (slope factor of the inhibition curve) for O=C1CCc2cc(/C=C/C(CO)N3CCN(c4ccc(Cl)cc4)CC3)ccc2N1 (racemic) [Compound 23] , please?
A: −1.09
